Listed here are compounds together with their documented melting point.

O=S(=O)(Nc1ncnc(Cl)c1-c1ccc(-c2ccccc2)cc1)c1ccc(Cl)cc1: 234 to 235 °C
NC(=O)c1cc(-c2ccccc2)c(=O)n2c1-c1ccccc1C2: 294 to 296 °C
CCCCCCCCCC(=O)c1cc(OC)c(Cl)cc1OC: 53 to 54 °C

compound O=C(Nc1nc(-c2ccco2)c(C(=O)c2ccncn2)s1)c1ccncc1 , melting point observed: > 300 °C

---

test_readout: melting point

CNC(=O)N1CCN(C(=O)CN2CCCC2=O)CC1: 203 to 205 °C
O=C(O)C(Cc1ccc(OCCN2c3ccccc3Oc3ccccc32)cc1)Oc1ccccc1 (stereo unspecified): 119 to 120 °C
CCCC(=O)Nc1c(C)c(C)c2c(c1C)C(c1ccc(C)cc1)C(C)(C)O2 (stereo unspecified): 138 to 139 °C
CCn1cc(C)c(NS(=O)(=O)c2ccc(NC(C)=O)cc2)nc1=O: 235 to 239 °C
O=C(Oc1cc(F)ccc1Br)c1cc2cc(CCl)ccc2oc1=O: 203 to 205 °C

molecule Cc1nc(N=CN(C)C)sc1C , melting point observed: 47 to 58 °C

---

Listed here are compounds together with their documented melting point.

COc1cc([N+](=O)[O-])c(N)cc1C(=O)Oc1ccccc1: 130 to 132 °C
O=C(O)c1ccccc1C(=O)c1ccccc1Cl: 112 to 116 °C
O=C(NCc1cccs1)C12CC3CC(CC(O)(C3)C1)C2: 140 to 141 °C
Cc1nc2cc(OCc3ccccc3)c(OCc3ccccc3)cc2nc1C(=O)O: 198 to 200 °C
COc1ccnc(C#N)c1OC: 133 °C

Now for a further compound.
compound Cc1cc(Br)c(Cl)c(C(=O)O)c1 , melting point observed: 160 °C

---

Listed here are compounds together with their documented melting point.

Illustrative cases are given below, each with its answer.
O=C1CC(C2CCCC2)CN1 (centres undefined): 117 to 119 °C
CCOC(=O)C(Cc1ccc(C(N)=S)cc1)(NC(C)=O)C(=O)OCC: 168 to 172 °C
COc1cc2c(Nc3ccc(Oc4cccnc4)cc3)c(C#N)cnc2cc1OCC1CCN(C)CC1: 182 to 184 °C
CCCc1c(OCc2ccccc2C(=O)OC)ccc(C(C)=O)c1O: 90 to 93 °C
Cc1cn(C2CC(O)C(CO)(N=[N+]=[N-])O2)c(=O)[nH]c1=O (centres undefined): 175 to 176 °C
CCN(CC)C(=O)NC1CC2c3cccc4[nH]c(C(C)=O)c(c34)CC2N(C)C1 (centres undefined): 114 to 116 °C
COc1nc(-c2ccccc2Cl)c2ccsc2n1: 172 to 174 °C
COC(C)(C)CNC(=O)c1cccc(-c2cccc3cc(Cc4cc(F)cc(Cl)c4)sc23)c1: 89 to 90 °C

compound CN(C(=O)OCc1ccccc1)C1CCN(CC2(C)Cn3cc([N+](=O)[O-])nc3O2)CC1 (centres undefined) , melting point observed: 139 °C

compound COc1cc(Nc2nccc(-c3ccc(N)s3)n2)cc(OC)c1OC , melting point observed: 161 to 162 °C

---

Listed here are molecules together with their documented melting point.

Illustrative cases are given below, each with its answer.
CCOn1cnc2c(N)nc3ccccc3c21: 179 to 181 °C
CC(=O)SCC(Cc1ccccc1)C(=O)Nc1ccc(O)c(C(=O)O)c1 (stereo not drawn): 185 to 188 °C

Now for a further molecule.
molecule N#Cc1ccc(C2CCN(Cc3ccccc3)C2)cc1 (stereo not drawn) , melting point observed: 78 to 79 °C

---

test_readout: melting point

Illustrative cases are given below, each with its answer.
CC(C)COC1OC(CO)C(O)C(O)C1(O)N(C(=O)N(CCCl)N=O)C1CCCCC1 (stereo unspecified): 87 to 89 °C
COc1cc2c(cc1OCc1ccccc1)CCN(C(C)=O)C2: 125 to 126 °C
Cc1ccc(Nc2cc(C)nc(-n3nc(C)cc3C)n2)cc1: 135 to 138 °C

compound Cc1nc(O)sc1C(=O)CBr , melting point observed: 162 °C

compound CCOc1ccc(Oc2ccc(CNC(=O)c3sc(C)nc3C)cc2)cc1 , melting point observed: 99 to 101 °C

compound Cc1ccc(NC(=O)N2CCc3cc(S(=O)(=O)N4CC(c5ccccc5)NC4=O)ccc32)cc1 (stereo unspecified) , melting point observed: 223 to 224 °C

---

test_readout: melting point

compound CCCCCC#CCC#CCC#CCC#CCO , melting point observed: 54 to 56 °C

compound O=C(O)c1cn(C2CC2)c2c(F)c(N3CC(n4ccnn4)C3)c(F)cc2c1=O , melting point observed: 315 to 316 °C

compound COc1cc(C(OC(C)=O)C(COC(C)=O)[N+](=O)[O-])cc(OC)c1OC (stereo not drawn) , melting point observed: 107 to 109 °C

---

Listed here are compounds together with their documented melting point.

CC(C)(C)OC(=O)N=C(N)N(CCc1ccc(OCCC2Oc3ccccc3N(Cc3cccc(Cl)c3)C2=O)cc1)C(=O)OC(C)(C)C (centres undefined): 74 to 78 °C

Now for a further compound.
compound Cc1c(C=NO)c2cc(Cl)ccc2n1-c1ccc(O)cc1 , melting point observed: 212 to 213 °C

---

Listed here are compounds together with their documented melting point.

CCOC(=O)CN1C(=O)Nc2cccc(Cl)c2C1C (stereo not drawn): 143 to 144 °C

compound COc1cc(C)cc(OCCCSCCC(=O)O)c1 , melting point observed: 39 to 42 °C

compound COc1cc2cc3[nH]cc(C#N)c(=O)c3cc2cc1OC , melting point observed: > 265 °C

---

test_readout: melting point

Illustrative cases are given below, each with its answer.
O=[N+]([O-])c1cc2c(Nc3ccc(F)c(Cl)c3)ncnc2cc1OC1CCC1: 235 °C
c1ccc(C(Cc2nc(COc3ccc(CCCn4ccnc4)cc3)co2)c2ccccc2)cc1: 79 to 80 °C

Now for a further compound.
compound O=C(O)CCCCCc1nn(-c2ccc([N+](=O)[O-])cc2)c2c1CCC2 , melting point observed: 131 to 132 °C

---

Listed here are compounds together with their documented melting point.

Illustrative cases are given below, each with its answer.
COC(=O)Cc1cc(NC(=O)OC(C)(C)C)c(N)cc1C#Cc1ccccc1: 130 °C
COC(=O)Nc1cc(-c2ccc(S(C)(=O)=O)cc2)n(-c2ccc(F)cc2)n1: 225 to 227 °C
CC(C)Cn1cnc2c(N)nc3ccc(CCCCc4ccccc4)cc3c21: 176 to 177 °C
NS(=O)(=O)c1ccc(NC(=O)NC2CCCC2)cc1: 224 to 226 °C
CCn1c(=O)sc2cc(N3C[C@H](C(N)=O)OC3=O)ccc21: 211 to 212 °C
CCCc1nn(-c2ccc(C(F)(F)F)cn2)cc1CCCCO: 80 to 81 °C

compound Cc1ccc2c(c1)CNCC2c1ccc(O)c(O)c1 (stereo unspecified) , melting point observed: 192 to 195 °C

compound O=C(NCCN1CCCCC1)c1ccc(-c2ccc3nnn(Cc4ccc5ncccc5c4)c3n2)cc1 , melting point observed: 104 to 107 °C

compound CN(C)C(=O)c1ccc(NS(C)(=O)=O)c(Oc2ccc(F)cc2F)c1 , melting point observed: 165 to 167 °C

---

Listed here are compounds together with their documented melting point.
Residues, ends and D or L forms follow the SMILES beside them.

Illustrative cases are given below, each with its answer.
Cc1ccc(-c2c(CO)n(CC(C)C)c(=O)c3ccc(OCc4ccccc4)cc23)cc1: 74 to 76 °C
CC(C)CC(NC(=O)C(Cc1ccccc1)NC(=O)CNC(=O)C(C)NC(=O)C(N)Cc1ccc(O)cc1)C(=O)NC(CCCNC(=N)N)C(=O)O (stereo not given) (H-YAGFLR-OH; configuration not given here): 173 to 176 °C
COc1cc2c(cc1N)CCCC2: 121 °C
CCCOC(=O)C=CC1C(C(=O)O)C1(C)C (stereo not given): 59 °C
CC1CC(=O)c2c(ccc(Cl)c2Cl)O1 (stereo not given): 135 to 140 °C

compound CNc1c(OC)cc(C(=O)CS(C)(=O)=O)cc1OC , melting point observed: 98 to 99 °C

compound Cc1ccc(C(=O)n2c3c(c4ccccc42)CC(C(=O)O)CC3)cc1 (stereo not given) , melting point observed: 210 to 212 °C

compound Cc1c([N+](=O)[O-])ccc(Cl)c1C#N , melting point observed: 87.5 to 89.5 °C

compound CNC(=O)c1cnc(-c2ccccc2)c(-c2ccc(=O)n(C(C)C)n2)c1 , melting point observed: 212 to 213 °C

compound CCOCc1nc2c(N)nc3ccccc3c2n1CCCCC(=O)N1CCOCC1 , melting point observed: 128 to 129 °C

compound CCOC(=O)c1c2ccc(CC(=O)NOCC(=O)N3CCOCC3)ccc-2c(C(=O)OCC)c1N , melting point observed: 196 to 198 °C

compound Cc1ccc(N2CCN(Cc3n[nH]c4c(F)cccc34)CC2)cc1 , melting point observed: 176 to 177 °C

compound Cc1ccc(F)c(NC(=O)c2ccccc2CN2C(=O)C3(COc4cc5c(cc43)CCO5)c3ccccc32)c1 (stereo not given) , melting point observed: 214 to 216 °C

compound O=C1CS(=O)(=O)c2ccccc21 , melting point observed: 133 to 134 °C

compound OC(c1ccc(Cl)cc1)(c1ccccc1F)C1CO1 (stereo not given) , melting point observed: 120 to 122 °C

From: a melting point compilation (Tetko et al.; mined from patent text by program, amines drawn as free bases though some values may be those of a salt)
